B1: KLHL14 (parent)
chain: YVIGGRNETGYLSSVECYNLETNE

- Variants of: B1
- Method Notes: protein stability index of a GFP-peptide fusion (GPS, HEK-293T) (PSI 1-6); higher = more stable;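 also: lentivirally expressed fusions sorted by FACS into six bins by GFP to DsRed ratio, PSI derived from sequencing read proportions per bin multiplied by bin number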
- Condition Summary: c terminus: a fixed tail appended
Property Name: protein stability index
// no unit, no text: just the number

L20A; 2.12
S14N; 2.12
R6S; 2.35
T9L; 1.69
N7K; 2.27

Suppose we examine the variant E24M ; what protein stability index value has been reported?
1.71

# query: protein stability index of entry E16H
1.62

Request the reported protein stability index associated with Y18V
2.05

Using the record for I3S , report its protein stability index.
1.61

Record request: protein stability index value, item G10D
3.07
